Origin of measurements: patent US9586959B2

Metabolic stability (CLh. int), Mouse for assorted molecules
Experiment: Metabolic stability in mouse microsome
Conditions: mouse microsome 1 mg/mL, 5 μM compound, 1 mM NADPH
Return type: number; implicit unit µL/min/mg.

Study these solved cases before continuing.
# smiles structure, Metabolic stability (CLh. int), Mouse [µL/min/mg]
data = [
    ("CN1CCN(c2nc3ncc(C#N)cc3n3cnnc23)CC1", 3070),
    ("C[C@H]1CN(c2nc3ncc(Cl)cc3n3cnnc23)CCN1C", 7570),
    ("CNC1CN(c2nc3ncc(Cl)cc3n3nnnc23)C1", 9470),
    ("CNC1CN(c2nc3nc(Cl)c(Cl)cc3n3cnnc23)C1", 7270),
]

Then there is this molecule:
Fill blank: measured Metabolic stability (CLh. int), Mouse of the molecule `Clc1cnc2nc(N3CCNCC3)c3nncn3c2c1` is ____.
6900
